Tested on: NCI-H226 lung
Experiment: NCI tumour cell line growth inhibition, 48 h
Readout name: TGI

Below, each entry is followed by its recorded TGI result.
CSC(=S)OC1C(CO[Si](C)(C)C(C)(C)C)OC2OC(C)(C)OC21 (stereo not drawn) : 29.7 µM
COc1cc(-c2oc(C=Nc3ccccc3)c([N+](=O)[O-])c2-c2ccc(O)c(OC)c2)ccc1O : > 100 µM
COc1cc([C@@H]2OC(=O)C3C2C(=O)O[C@H]3c2cc(OC)c(OC)c(OC)c2)cc(OC)c1OC (stereo partly drawn) : > 100 µM
c1ccc2c3c([nH]c2c1)C1(CCCCC1)c1c([nH]c2ccccc12)C31CCCCC1 : 97.1 µM
COc1cc(/C=C2/C(=O)NC(Cc3cc(OC)c(OC)c(C)c3OC)C(=O)N2Cc2ccccc2)c(OC)c(C)c1OC (stereo not drawn) : > 100 µM
CC(=O)c1cccc(NC(=O)C(=O)C(C(=O)c2ccccc2F)C2OC(=O)c3ccccc32)c1 (stereo not drawn) : 67.3 µM
O=Cc1ccc(-c2cccc([N+](=O)[O-])c2)s1 : > 100 µM
Cc1csc2nc3[nH]ncc3c(=O)n12 : > 100 µM

Exercise: Item [C-]#[N+]C1(C(=O)OCC)CC1 has what recorded TGI?
Solution: > 100 µM

Exercise: What measured TGI goes with CC12CC3CC(C1)CC(N=[N+]=[N-])(C3)C2 ?
Solution: > 100 µM

Exercise: For the molecule C[CH2][Sn]([CH2]C)([O]C(=O)c1cccc(F)c1)[O][Sn]([CH2]C)([CH2]C)[O]C(=O)c1cccc(F)c1 , what TGI is on record?
Solution: 33.8 µM

====

System: SNB-75 CNS
Experiment: NCI tumour cell line growth inhibition, 48 h
# maps each entry to its TGI
Unit µM implied. Number only.

Recorded TGI, per entry:
O=[N+]([O-])c1ccc(NC(=S)Nc2ccccn2)cc1 : 71.6
Cc1cc(-c2nc3cc(O)ccc3s2)ccc1N : 95.5

Next:
Exercise: GET /values?readout=TGI&system=SNB-75 CNS&item= COc1ccc2c(c1)OC(N)=C(C#N)C2c1ccc(F)cc1 (stereo unspecified)
Solution: 13.3

====

Tested on: NCI-H522 lung
Assay: NCI tumour cell line growth inhibition, 48 h
Items are presented alongside their recorded TGI.

Consider the worked cases shown below.
CN(C)c1ccc(N=Nc2cccc3ncccc23)cc1 : > 73.8 µM
CCOC(=O)C(=CNC(=S)Nc1c(CC)cccc1CC)C(=O)OCC : > 100 µM
COc1ccc(CCc2ccccc2CC(=O)O)cc1 : > 100 µM

Exercise: Could you share which TGI value was measured for COc1ccc(/C=C/C(=O)c2cc3c(N)c(C(=O)Nc4ccccc4)sc3nc2C)cc1 ?
Solution: 4.56 µM

Exercise: Could you share which TGI value was measured for Cc1nn(-c2nc3ccccc3[nH]2)c2c1C(c1ccc3c(c1)OCO3)CC(=O)N2 (stereo not drawn) ?
Solution: 5.41 µM

Exercise: What does the record list as TGI for CC12CC3CC(C1)CC(N=[N+]=[N-])(C3)C2 ?
Solution: > 100 µM

====

Listed here: items and their measured TGI.
Test system: RPMI-8226 leukemia
Assay: NCI tumour cell line growth inhibition, 48 h

Clc1ccc(SCCCCCCCCCCSc2ccc(Cl)cc2)cc1 : > 100 µM
COc1cc(C2c3cc4c(cc3OC(NCc3ccccc3)C2C)OCO4)cc(OC)c1OC (stereo unspecified) : 24.2 µM

Exercise: Endpoint output: TGI of [O-]c1c[n+](CC[n+]2cc([O-])on2)no1 . Value?
Solution: > 100 µM

Exercise: Find the recorded TGI belonging to Cc1cccc2c1C(=O)OC2(C)c1cccc2ccccc12 (stereo unspecified) and report it.
Solution: > 100 µM

Exercise: Item CCOC1C=CCCO1 (stereo unspecified) has what recorded TGI?
Solution: > 100 µM

Exercise: Could you share which TGI value was measured for CCCCc1ccc(Nc2nc(N)c3ncn(COCCO)c3n2)cc1 ?
Solution: 94.2 µM

Data origin, for the record: PubChem BioAssay (NCI)
